Listed below are compounds with IC50 for Matrilysin (Homo sapiens, UniProt P09237), each taken from published literature.
experimental readout: IC50 (µM)

COCOC1CSC(C)(C)[C@H](C(=O)NO)N(S(=O)(=O)c2ccc(OC)cc2)C1 (stereo not given in full): 0.038

1: COc1ccc(-c2ccc(S(=O)(=O)NC(C(=O)O)C3CCN(C(=O)CC(C)C)CC3)cc2)cc1 (stereo not given)
2: CCCOc1ccc(S(=O)(=O)N2C[C@@H](N3CCCS3(=O)=O)C[C@@H]2C(=O)NO)cc1
Compare 1 and 2 and name the one whose reported IC50 is smaller. Answer by stating the label of the chosen item.
2
(2: 0.84 µM, 1: 4.37 µM)
